- Test system: SEM cells
- TEST_DESCRIPTION: cell viability relative to DMSO control; higher = less cytotoxic
- SETUP_CONDITIONS: RPMI 5 mM glucose + 10% dialyzed FBS; 48 h; 0.19 µM
PROPERTY_LABEL: cell viability

| MOLECULE | TARGET_UNDER_TEST | REPORTED_VALUE |
| --- | --- | --- |
| Cc1ncc([N+](=O)[O-])n1CC(C)O (centres undefined) | SEM cells | 104% |
| CCOc1ccc(Cc2cc([C@@H]3O[C@H](CO)[C@@H](O)[C@H](O)[C@H]3O)ccc2Cl)cc1 | SEM cells | 124% |
| CNC(=O)Nc1ccc(-c2nc(N3CC4CCC(C3)O4)c3cnn(C4CCC5(CC4)OCCO5)c3n2)cc1 | SEM cells | 56.2% |
| CCN(c1ccccc1)c1cc(NC)[n+](C)c(C)n1 | SEM cells | 97.4% |
| COc1cc(C)c(Sc2cnc(NC(=O)c3ccc(CNC(C)C(C)C)cc3)s2)cc1C(=O)N1CCN(C(C)=O)CC1 (centres undefined) | SEM cells | 118% |
| COC(=O)\C1=C\CCN(C)C1 | SEM cells | 106% |
| O.O.CCN1CCN(C(=O)N[C@H](C(=O)N[C@H]2[C@@H]3SC\C(=C(/N3C2=O)C(O)=O)CSC4=NN=N[N]4C)C5=CC=C(O)C=C5)C(=O)C1=O | SEM cells | 106% |
| CN1CCN(C(=O)O[C@H]2c3nccnc3C(=O)N2c2ccc(Cl)cn2)CC1 | SEM cells | 105% |
| C[C@](N)(Cc1ccc(O)c(O)c1)C(=O)O | SEM cells | 91.1% |
